Cited source: PubChem BioAssay AID686959

# IC50 listing for each entry below
method.description: small molecules binding CAG repeat RNA – biochemical, fluorescence, dose response (AID 686959)
assay.setup: r(CAG) RNA repeat binding
The source made the active and inactive calls. Cut-off not given; nearly all actives show IC50 up to about 8.1 µM.
measured.metric: IC50

>>> measurement("Cc1ccc2nc(N3C(=O)C(O)=C(C(=O)c4ccco4)C3c3ccc(C)o3)sc2c1 (stereo unspecified)")
"0.624 µM (active)"
>>> measurement("Cc1noc(NS(=O)(=O)c2ccc(NC(=O)COc3ccc(Cl)cc3Cl)cc2)c1C")
"2.83 µM (active)"
>>> measurement("O=C(O)c1ccc(N2C(=O)CC(SC(=NCc3ccc4c(c3)OCO4)Nc3ccc(F)cc3)C2=O)cc1 (stereo unspecified)")
"2.89 µM (active)"
>>> measurement("N#C/C(C(=O)Nc1ccc(Cl)cc1)=C(/S)Nc1ccccc1")
"6.14 µM (active)"
>>> measurement("N/C(=N\\N=C\\c1cccs1)SC1CC(=O)N(c2ccc(Br)cc2)C1=O (stereo unspecified)")
"8.27 µM (active)"
>>> measurement("CC1=C(C#N)c2nc(N)c(C#N)c(C)c2/C1=C\\c1ccc(-c2ccccc2C(=O)O)o1")
"2.57 µM (active)"
>>> measurement("CCOC(=O)C1=C(C)NC(SCc2cc(=O)[nH][nH]2)=C(C#N)C1c1cccs1 (stereo unspecified)")
"7.4 µM (active)"
>>> measurement("N#CC1=C(N)n2c(s/c(=C\\c3ccco3)c2=O)=C(C#N)C1c1ccco1 (stereo unspecified)")
"5.38 µM (active)"
>>> measurement("O=C(O)CCCCCn1c(O)c(C=C2N=c3ccccc3=N2)sc1=S")
"3.87 µM (active)"
>>> measurement("C/C(=N\\N=C(/N)SC1CC(=O)N(c2cccc(Cl)c2)C1=O)c1cccs1 (stereo unspecified)")
"5.19 µM (active)"
>>> measurement("Cc1cc(N2C(=O)C(O)=C(C(=O)c3cc4ccccc4o3)C2c2cccc(Cl)c2)no1 (stereo unspecified)")
"1.19 µM (active)"
